# METHOD: Steady-state plasma pharmacokinetics (HPLC-MS/MS) in healthy men; oral roflumilast 500 μg once daily, inhaled formoterol 24 μg twice daily
# APPLIED_CONDITIONS: male, human, plasma, oral, 500 μg, Cmax, steady state, Regimen A Day 11 (roflumilast alone); geometric mean (68% range)
READOUT_LABEL: Cmax

                            molecule_smiles  readout_label  recorded_value
0  O=C(Nc1c(Cl)cncc1Cl)c1ccc(OC(F)F)c(OCC2CC2)c1           Cmax      6.89 ng/mL

* * *

# METHOD: Steady-state plasma pharmacokinetics (HPLC-MS/MS) in healthy men; oral roflumilast 500 μg once daily, inhaled formoterol 24 μg twice daily
# APPLIED_CONDITIONS: male, human, in vivo, AUCτ (formoterol), steady state, Regimen A Day 18 (roflumilast plus formoterol); geometric mean (68% range)
# Protocol: For Regimen A, subjects received 500 μg oral roflumilast once daily (daily dose: one tablet of roflumilast 500 μg) from the morning of Day 2 to the morning of Day 18. […] For roflumilast, roflumilast N-oxide and formoterol, the maximum plasma concentration (Cmax) was derived directly from the plasma concentrations. […] Apparent clearance at steady state (CL/F; calculated by dose/AUCτ) was reported for roflumilast only. […]
READOUT_LABEL: AUC (ng·h/mL)

>>> print(df.to_string())
                                   compound  measurement_unit  recorded_value
0  COc1ccc(CC(C)NCC(O)c2ccc(O)c(NC=O)c2)cc1 (stereo not shown)           ng·h/mL            93.2

* * *

# METHOD: Steady-state plasma pharmacokinetics (HPLC-MS/MS) in healthy men; oral roflumilast 500 μg once daily, inhaled formoterol 24 μg twice daily
# APPLIED_CONDITIONS: male, human, in vivo, Cmax (formoterol), steady state, Regimen A Day 18 (roflumilast plus formoterol); geometric mean (68% range)
# Method: For Regimen A, subjects received 500 μg oral roflumilast once daily (daily dose: one tablet of roflumilast 500 μg) from the morning of Day 2 to the morning of Day 18. […] For roflumilast, roflumilast N-oxide and formoterol, the maximum plasma concentration (Cmax) was derived directly from the plasma concentrations. […] Apparent clearance at steady state (CL/F; calculated by dose/AUCτ) was reported for roflumilast only. […]
READOUT_LABEL: Cmax (ng/mL)

In [3]: df
Out[3]:
                                   compound  readout_label  measurement_unit  recorded_value
0  COc1ccc(CC(C)NCC(O)c2ccc(O)c(NC=O)c2)cc1 (stereo not shown) [Formoterol]           Cmax             ng/mL            18.7

* * *

# METHOD: Steady-state plasma pharmacokinetics (HPLC-MS/MS) in healthy men; oral roflumilast 500 μg once daily, inhaled formoterol 24 μg twice daily
# APPLIED_CONDITIONS: male, human, plasma, oral, Cmax, steady state, Regimen A Day 18 (roflumilast plus formoterol); geometric mean (68% range)
READOUT_LABEL: Cmax (ng/mL)

>>> df
                            molecule_smiles  recorded_value
0  O=C(Nc1c(Cl)cncc1Cl)c1ccc(OC(F)F)c(OCC2CC2)c1            6.43

* * *

# METHOD: Steady-state plasma pharmacokinetics (HPLC-MS/MS) in healthy men; oral roflumilast 500 μg once daily, inhaled formoterol 24 μg twice daily
# APPLIED_CONDITIONS: male, human, in vivo, Cmax (formoterol), steady state, Regimen B Day 18 (formoterol plus roflumilast); geometric mean (68% range)
READOUT_LABEL: Cmax (ng/mL)

>>> print(df.to_string())
                                   compound  recorded_value
0  COc1ccc(CC(C)NCC(O)c2ccc(O)c(NC=O)c2)cc1 (stereo not shown) [Formoterol]            17.2

* * *

# METHOD: Steady-state plasma pharmacokinetics (HPLC-MS/MS) in healthy men; oral roflumilast 500 μg once daily, inhaled formoterol 24 μg twice daily
# APPLIED_CONDITIONS: male, human, plasma, oral, AUCτ, steady state, Regimen B Day 18 (formoterol plus roflumilast); geometric mean (68% range)
READOUT_LABEL: AUC

>>> df
                                   compound  readout_label  recorded_value
0  O=C(Nc1c(Cl)cncc1Cl)c1ccc(OC(F)F)c(OCC2CC2)c1 [Roflumilast]            AUC    31.8 ng·h/mL

* * *

# METHOD: Steady-state plasma pharmacokinetics (HPLC-MS/MS) in healthy men; oral roflumilast 500 μg once daily, inhaled formoterol 24 μg twice daily
# APPLIED_CONDITIONS: male, human, in vivo, 24 μg, Cmax (formoterol), steady state, Regimen B Day 8 (formoterol alone); geometric mean (68% range)
READOUT_LABEL: Cmax (ng/mL)

In [3]: df
Out[3]:
                                   compound  readout_label  measurement_unit  recorded_value
0  COc1ccc(CC(C)NCC(O)c2ccc(O)c(NC=O)c2)cc1 (stereo not shown)           Cmax             ng/mL            16.7

* * *

# METHOD: Steady-state plasma pharmacokinetics (HPLC-MS/MS) in healthy men; oral roflumilast 500 μg once daily, inhaled formoterol 24 μg twice daily
# APPLIED_CONDITIONS: male, human, plasma, oral, Cmax, steady state, Regimen B Day 18 (formoterol plus roflumilast); geometric mean (68% range)
READOUT_LABEL: Cmax (ng/mL)

In [3]: df
Out[3]:
                            molecule_smiles  recorded_value
0  O=C(Nc1c(Cl)cncc1Cl)c1ccc(OC(F)F)c(OCC2CC2)c1            5.92

Provenance of the data: paper PMC3127977
